Catalogue of IC50 values
- Measured On: rat P2X7 (Rattus norvegicus (Rat), UniProt Q64663)
- Sequence (Q64663 whole entry): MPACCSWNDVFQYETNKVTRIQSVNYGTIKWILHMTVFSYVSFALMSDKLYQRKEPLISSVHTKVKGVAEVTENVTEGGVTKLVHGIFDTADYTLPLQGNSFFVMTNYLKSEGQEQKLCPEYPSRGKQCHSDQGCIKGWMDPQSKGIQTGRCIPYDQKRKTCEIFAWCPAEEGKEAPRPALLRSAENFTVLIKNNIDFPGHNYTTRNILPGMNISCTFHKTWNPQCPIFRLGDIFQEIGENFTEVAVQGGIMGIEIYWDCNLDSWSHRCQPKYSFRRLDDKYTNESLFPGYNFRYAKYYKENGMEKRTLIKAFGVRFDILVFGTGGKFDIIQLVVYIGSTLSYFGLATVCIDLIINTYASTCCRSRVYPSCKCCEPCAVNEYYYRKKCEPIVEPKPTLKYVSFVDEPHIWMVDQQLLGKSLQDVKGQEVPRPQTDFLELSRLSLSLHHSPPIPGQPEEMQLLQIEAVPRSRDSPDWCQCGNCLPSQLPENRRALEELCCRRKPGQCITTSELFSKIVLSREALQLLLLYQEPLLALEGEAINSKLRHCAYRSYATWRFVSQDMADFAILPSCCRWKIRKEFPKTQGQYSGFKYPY
- Experiment: P2X7 antagonism in recombinant rat P2X7 cells (column headed P2X7 Rat IC50)
Answer in µM, number only, no unit symbol.

smiles_string=Cc1nc(-c2ncccn2)c2c(n1)[C@H]1CCC[C@@H](C2)N1C(=O)c1cccc(C(F)(F)F)c1C readout_value=0.0417
smiles_string=Cc1nc(-c2ccccn2)c2c(n1)[C@H]1CCC[C@@H](C2)N1C(=O)c1cccc(C(F)(F)F)c1Cl readout_value=0.0331
smiles_string=Cc1nc(-c2ccccn2)c2c(n1)[C@H]1CCC[C@@H](C2)N1C(=O)c1cccc(C(F)(F)F)c1C readout_value=0.0513
smiles_string=Cc1nc(-c2ncccn2)c2c(n1)[C@H]1CCC[C@@H](C2)N1C(=O)c1cccc(Cl)c1Cl readout_value=0.128
smiles_string=Cc1nc(-c2ccn[nH]2)c2c(n1)[C@H]1CCC[C@@H](C2)N1C(=O)c1cccc(Cl)c1Cl readout_value=0.207
smiles_string=Cc1nc(-c2ccn[nH]2)c2c(n1)[C@@H]1CCC[C@H](C2)N1C(=O)c1cccc(C(F)(F)F)c1F readout_value=0.601
smiles_string=Cc1nc(-c2ccn[nH]2)c2c(n1)[C@H]1CCC[C@@H](C2)N1C(=O)c1cccc(C(F)(F)F)c1C readout_value=0.0332

Data request: Query the reported IC50 for rat P2X7 (Rattus norvegicus (Rat), UniProt Q64663); item: Cc1nc(-c2ccc(F)cc2)c2c(n1)[C@@H]1CCC[C@H](C2)N1C(=O)c1cccc(C(F)(F)F)c1Cl
Data returned: 0.0889

====

The compounds listed here are annotated with their pIC50.
- Measured On: rat P2X7 (Rattus norvegicus (Rat))
- Experiment: P2X7 antagonism in recombinant rat P2X7 cells (column headed P2X7 Rat IC50)
In textbook form, pIC50 equals minus log to base ten of the concentration in mol/L.

Before answering, review these 2 worked examples.
smiles_string=Cc1nc(-c2ccnn2C)c2c(n1)[C@H]1CCC[C@@H](C2)N1C(=O)c1ccnc(C(F)(F)F)c1Cl readout_value=6.10
smiles_string=Cc1nc(-c2ccnn2C)c2c(n1)[C@H]1CCC[C@@H](C2)N1C(=O)c1cccc(Cl)c1Cl readout_value=5.96

Data request: Can you share its pIC50? I mean this compound: Cc1nc(-c2ccnn2C)c2c(n1)[C@H]1CCC[C@@H](C2)N1C(=O)c1cccc(C(F)(F)F)c1C
Data returned: 6.22

Data request: Using the record for Cc1nc(-c2ccn[nH]2)c2c(n1)[C@H]1CCC[C@@H](C2)N1C(=O)c1ccc(F)c(Cl)c1Cl , report its pIC50.
Data returned: 7.73

====

Overview of reported pIC50 across a group of compounds:
- Measured On: rat P2X7 (Rattus norvegicus (Rat), UniProt Q64663)
- Experiment: P2X7 antagonism in recombinant rat P2X7 cells (column headed P2X7 Rat IC50)
Quick note: pIC50 means taking -log10 of the concentration in moles per liter.

compound=Cc1nc(-c2ccn[nH]2)c2c(n1)[C@@H]1CCC[C@H](C2)N1C(=O)c1cccc(C(F)(F)F)c1Cl readout_value=6.09
compound=Cc1nc(-c2cnccn2)c2c(n1)[C@H]1CCC[C@@H](C2)N1C(=O)c1cccc(Cl)c1Cl readout_value=7.27
compound=Cc1nc(-c2ccn[nH]2)c2c(n1)[C@H]1CCC[C@@H](C2)N1C(=O)c1ccnc(C(F)(F)F)c1F readout_value=6.88
compound=Cc1nc(-c2ccn[nH]2)c2c(n1)[C@H]1CCC[C@@H](C2)N1C(=O)c1ccnc(C(F)(F)F)c1Cl readout_value=7.72

Data request: Using the record for Cc1nc(-c2ncccn2)c2c(n1)[C@H]1CCC[C@@H](C2)N1C(=O)c1cccc(C(F)(F)F)c1Cl , report its pIC50.
Data returned: 7.80

Data request: Please look up its pIC50: Cc1nc(-c2cnccn2)c2c(n1)[C@H]1CCC[C@@H](C2)N1C(=O)c1cccc(C(F)(F)F)c1C
Data returned: 7.17

Data request: Report pIC50 for Cc1nc(-c2ccc(F)cc2)c2c(n1)[C@H]1CCC[C@@H](C2)N1C(=O)c1ccc(Cl)c(F)c1Cl please.
Data returned: 6.43

Data request: Could you share which pIC50 value was measured for Cc1nc(-c2ncccn2)c2c(n1)[C@H]1CCC[C@@H](C2)N1C(=O)c1ccc(Cl)c(F)c1Cl ?
Data returned: 6.60

Data request: What does the data say about its pIC50? Entry: Cc1nc(-c2cnccn2)c2c(n1)[C@H]1CCC[C@@H](C2)N1C(=O)c1ccnc(C(F)(F)F)c1Cl
Data returned: 6.86

Data request: Value lookup for pIC50; key = Cc1nc(-c2ccccn2)c2c(n1)[C@H]1CCC[C@@H](C2)N1C(=O)c1cccc(Cl)c1Cl
Data returned: 6.73

Data request: Any idea what its pIC50 is? The compound is Cc1nc(-c2ccnn2C)c2c(n1)[C@H]1CCC[C@@H](C2)N1C(=O)c1ccc(Cl)c(F)c1Cl
Data returned: 6.09

Data request: What value of pIC50 has been recorded for this entry: Cc1nc(-c2ccn[nH]2)c2c(n1)[C@@H]1CCC[C@H](C2)N1C(=O)c1ccc(F)c(Cl)c1Cl
Data returned: 6.02

Data request: Quick one: pIC50 for Cc1nc(-c2ccc(F)cc2)c2c(n1)[C@H]1CCC[C@@H](C2)N1C(=O)c1cccc(Cl)c1Cl ?
Data returned: 6.66

Data request: Given Cc1nc(-c2ccc(F)cc2)c2c(n1)[C@H]1CCC[C@@H](C2)N1C(=O)c1cccc(C(F)(F)F)c1C , state its recorded pIC50.
Data returned: 6.72

Data request: Can you look up the measured pIC50 of Cc1nc(-c2cnccn2)c2c(n1)[C@H]1CCC[C@@H](C2)N1C(=O)c1cccc(C(F)(F)F)c1Cl for me?
Data returned: 7.85

Data request: Any idea what its pIC50 is? The compound is Cc1nc(-c2ccn[nH]2)c2c(n1)[C@H]1CCC[C@@H](C2)N1C(=O)c1cccc(C(F)(F)F)c1F
Data returned: 7.38

Data request: Bench note: what pIC50 did Cc1nc(-c2ccccn2)c2c(n1)[C@H]1CCC[C@@H](C2)N1C(=O)c1ccc(Cl)c(F)c1Cl show?
Data returned: 6.42

These entries and their values trace back to patent US10150766B2.
